# Tested on: M14 melanoma
# Assay summary: NCI tumour cell line growth inhibition, 48 h
Quantity: TGI

# Compound, TGI
rows = [
    ("O=S(=O)([O-])[O-].[Cl-].[NH2-].[NH2-].[NH2-].[NH2-].[Ru+3].c1ccncc1", "> 100 µM"),
    ("COc1cc(S(=O)(=O)Nc2ccc(-c3csc(N4C(=O)C(Cl)C4c4ccccc4)n3)cc2)ccc1Cl (centres undefined)", "59.2 µM"),
]

Let's switch to this compound now.
Entry "CN(C)C=NCCN1CCOCC1" has what TGI?
> 100 µM

###

# Test system: IGROV1 ovarian
# Assay summary: NCI tumour cell line growth inhibition, 48 h
Recorded TGI values for a group of compounds are listed next.

Solved entries:
# Compound, TGI
rows = [
    ("C=C1C2CC(OC(C)=O)C3(C)C(c4ccoc4)OC(=O)[C@@H](O)[C@]13OC1C[C@H](OC(C)=O)C(C)(C)[C@H](CC(=O)OC)[C@]12C (some centres undefined)", "> 100 µM"),
    ("C/C(=N\\NC(=S)N1CC2CCC(CC2)C1)c1cccc(C)n1", "13.9 µM"),
    ("COc1c(-c2ccc(O)c(O)c2)oc2c(O)c(O)cc(O)c2c1=O", "70.7 µM"),
    ("O=C(CCCl)NNC1=NCCCCN1", "> 100 µM"),
    ("O=c1c(Br)cc2c(-c3ccccc3)c3cc(Br)c(O)c(Br)c3oc-2c1Br", "> 100 µM"),
]

Hi! What's the reported TGI for "C[n+]1c(-c2ccc(/C=N/NC(=O)c3ccc(C(=O)N/N=C/c4ccc(-c5cn6ccccc6[n+]5C)cc4)cc3)cc2)cn2ccccc21" on IGROV1 ovarian?
> 1000 µM

Quick one: CC1(C)C2CC3C4CC5(Nc6ccccc6C5N41)[C@]3(C)CC2=O (some centres undefined)
> 50 µM

Quick one: "CCN(CC)CCN(Cc1ccc(F)cc1)c1ccc(CO)c(Cl)c1"
3.61 µM

Quick one: "O=[N+]([O-])c1cc(Cl)ccc1OCc1ccccc1"
> 100 µM

Quick one: "O=c1c2cc(I)ccc2nc(SCc2n[nH]c(=S)o2)n1Cc1ccccc1"
35.3 µM
